# measured-on: Hck (UniProt P08631)
# Sequence (P08631 whole entry, looked up): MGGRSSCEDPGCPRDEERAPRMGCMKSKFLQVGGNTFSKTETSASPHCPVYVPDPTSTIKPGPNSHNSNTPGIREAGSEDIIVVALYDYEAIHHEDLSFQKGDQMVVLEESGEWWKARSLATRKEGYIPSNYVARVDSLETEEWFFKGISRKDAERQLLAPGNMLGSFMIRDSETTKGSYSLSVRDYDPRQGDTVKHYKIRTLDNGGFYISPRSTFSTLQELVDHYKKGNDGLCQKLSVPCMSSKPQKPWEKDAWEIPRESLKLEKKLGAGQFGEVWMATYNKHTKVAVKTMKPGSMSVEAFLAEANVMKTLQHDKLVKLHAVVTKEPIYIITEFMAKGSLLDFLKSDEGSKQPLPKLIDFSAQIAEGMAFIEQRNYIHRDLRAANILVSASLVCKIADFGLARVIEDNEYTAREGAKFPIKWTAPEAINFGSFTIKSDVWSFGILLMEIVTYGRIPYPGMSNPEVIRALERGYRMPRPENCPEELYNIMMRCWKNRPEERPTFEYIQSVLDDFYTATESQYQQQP
# assay-overview: phosphorylation enrichment, bacterial display (enrichment ratio); higher = better substrate or ligand; peptides without Tyr show the background
Param threshold (0.5) applies to phosphorylation enrichment; output Satisfied when value >= threshold, Not satisfied when value < threshold.

>>> label_value("HLELNYKEDEY [MME_Y502_Y497H]")
"Not satisfied"
>>> label_value("CTTIHCNFMCN [TP53_Y234_Y234C_YF]")
"Not satisfied"
>>> label_value("YTHSDYQYGQR [PKP2_Y166_S169G]")
"Satisfied"
>>> label_value("KNNDGYTDYAE [MCFD2_Y135_I136T]")
"Not satisfied"
>>> label_value("SMGHRYIEVFK [HNRNPF_Y82]")
"Not satisfied"
>>> label_value("EQKKYYNATKK [SCN5A_Y1495_M1498T]")
"Not satisfied"
>>> label_value("VMAVAYRLAEQ [HK1_Y461_T457M]")
"Not satisfied"
>>> label_value("QELRRYLKSGV [MICA_Y194]")
"Satisfied"
>>> label_value("DTKPVYQNLRQ [BOD1_Y82_A81V]")
"Satisfied"
>>> label_value("WDLPEYSYKDP [ITGA3_Y237_S235P]")
"Satisfied"
>>> label_value("ALAHEYHGGGG [HBB_Y146_K145E]")
"Not satisfied"
>>> label_value("HNLDYYKKTTN [FGFR3_Y648]")
"Satisfied"
>>> label_value("CNTIHYNFMCN [TP53_Y234_T230N_YF]")
"Satisfied"
>>> label_value("KFLENYLNCLL [PLD2_Y169_R172C_YF]")
"Not satisfied"
>>> label_value("PFFTSYPPSPD [GDAP2_Y491_YF]")
"Not satisfied"
>>> label_value("CVRTIYTIDGS [DCLK2_Y124_G119C]")
"Satisfied"
>>> label_value("EDKFMYSEFPQ [PTEN_Y240_F241S]")
"Satisfied"
>>> label_value("RAILDYIASKF [GSTA3_Y74_N73D_YF]")
"Not satisfied"
>>> label_value("LEEFQYIGESQ [MSH2_Y856]")
"Satisfied"
>>> label_value("ATQDNYVLEVR [PTPRZ1_Y2179_D2178N]")
"Not satisfied"
>>> label_value("EFQLPYFNMVP [BMPR1A_Y457_YF]")
"Satisfied"
>>> label_value("SLESAYPEVSQ [TTF1_Y357_G360V]")
"Satisfied"
>>> label_value("VTAALYGRLFE [BTD_Y536_YF]")
"Satisfied"
>>> label_value("VCDALYPPGPP")
"Not satisfied"
>>> label_value("TKVVHYRKWIK [KLK2_Y249]")
"Not satisfied"
>>> label_value("ALRHFYKLNII [ETV6_Y402_YF]")
"Not satisfied"
>>> label_value("GEEIKDMLWLS [OTC_Y55_Y55D]")
"Not satisfied"

----------
Reported phosphorylation enrichment values follow for various sequences
# measured-on: Jak2 (UniProt O60674)
# Sequence (O60674 whole entry, looked up): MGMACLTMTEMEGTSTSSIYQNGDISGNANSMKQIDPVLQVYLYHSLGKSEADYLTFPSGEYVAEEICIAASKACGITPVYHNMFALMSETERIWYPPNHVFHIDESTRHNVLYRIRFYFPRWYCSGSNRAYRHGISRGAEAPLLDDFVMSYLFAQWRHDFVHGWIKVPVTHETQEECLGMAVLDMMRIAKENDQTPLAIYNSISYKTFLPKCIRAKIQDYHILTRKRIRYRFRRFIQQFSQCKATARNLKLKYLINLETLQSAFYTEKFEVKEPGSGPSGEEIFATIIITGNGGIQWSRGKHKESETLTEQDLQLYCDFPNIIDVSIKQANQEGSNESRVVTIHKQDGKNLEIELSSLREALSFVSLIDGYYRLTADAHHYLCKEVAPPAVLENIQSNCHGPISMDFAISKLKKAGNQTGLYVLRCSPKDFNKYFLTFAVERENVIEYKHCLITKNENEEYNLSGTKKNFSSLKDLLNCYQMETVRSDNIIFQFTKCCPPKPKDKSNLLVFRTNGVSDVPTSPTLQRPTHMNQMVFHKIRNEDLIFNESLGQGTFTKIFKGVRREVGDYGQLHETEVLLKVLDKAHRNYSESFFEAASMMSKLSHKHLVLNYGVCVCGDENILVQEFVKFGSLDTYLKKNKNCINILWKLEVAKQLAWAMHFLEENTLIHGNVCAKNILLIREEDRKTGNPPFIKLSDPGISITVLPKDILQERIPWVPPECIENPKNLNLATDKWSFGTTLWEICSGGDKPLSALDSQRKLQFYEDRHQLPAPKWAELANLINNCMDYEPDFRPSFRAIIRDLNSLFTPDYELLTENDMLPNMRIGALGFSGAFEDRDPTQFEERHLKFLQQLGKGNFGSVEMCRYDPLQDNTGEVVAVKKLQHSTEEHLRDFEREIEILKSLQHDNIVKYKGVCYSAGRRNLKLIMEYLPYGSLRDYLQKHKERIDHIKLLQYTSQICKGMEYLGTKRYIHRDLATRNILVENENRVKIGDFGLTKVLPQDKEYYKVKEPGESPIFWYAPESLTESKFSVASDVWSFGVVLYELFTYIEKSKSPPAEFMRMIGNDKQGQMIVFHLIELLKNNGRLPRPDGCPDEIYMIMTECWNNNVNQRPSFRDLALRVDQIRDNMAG
# assay-overview: phosphorylation enrichment, bacterial display (enrichment ratio); higher = better substrate or ligand; peptides without Tyr show the background
observation-type: phosphorylation enrichment

>>> result("ILTYKYLQIPM [KIT_Y547_K550I]")
0.817
>>> result("GEEIKYMLWLS [OTC_Y55]")
1.21
>>> result("DAANNYARGHF [TUBA3E_Y103_S101N_YF]")
0.391
>>> result("PVGDVYKKKGL [NMNAT1_Y55_A54V]")
0.405
>>> result("TFLRTYTDTMQ [TSPAN7_Y124_A127T]")
0.687
>>> result("ESMQSYDLDYP [UNC13B_Y243_D238E]")
0.991
>>> result("RGNMYYENSYA [EGFR_Y113]")
2.08
>>> result("NHQYDYTFDWT [CSNK1A1_Y294]")
0.899
>>> result("DKATEYIQYMR [MAX_Y70]")
0.625

----------
# measured-on: Fyn (UniProt P06241)
# Sequence (P06241 whole entry, looked up): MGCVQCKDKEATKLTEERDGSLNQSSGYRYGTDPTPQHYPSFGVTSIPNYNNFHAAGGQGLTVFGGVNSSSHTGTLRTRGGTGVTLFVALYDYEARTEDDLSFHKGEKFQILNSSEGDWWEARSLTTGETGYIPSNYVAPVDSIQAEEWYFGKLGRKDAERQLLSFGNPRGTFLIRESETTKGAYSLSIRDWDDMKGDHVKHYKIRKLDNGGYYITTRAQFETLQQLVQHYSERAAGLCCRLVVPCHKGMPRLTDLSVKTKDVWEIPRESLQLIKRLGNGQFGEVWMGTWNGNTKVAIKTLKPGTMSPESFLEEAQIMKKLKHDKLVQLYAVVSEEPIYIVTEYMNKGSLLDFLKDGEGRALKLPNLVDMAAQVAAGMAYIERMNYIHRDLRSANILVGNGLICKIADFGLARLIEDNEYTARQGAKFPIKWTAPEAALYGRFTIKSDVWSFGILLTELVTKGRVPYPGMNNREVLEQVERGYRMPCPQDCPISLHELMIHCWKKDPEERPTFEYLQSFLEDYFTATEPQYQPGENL
# assay-overview: phosphorylation enrichment, bacterial display (enrichment ratio); higher = better substrate or ligand; peptides without Tyr show the background
observation-type: phosphorylation enrichment

>>> number("RNFDTYTAGLS [RHBDD1_Y264_YF]")
0.9
>>> number("VRTGIYHGREP [PIK3CA_Y361_G364R]")
0.357
>>> number("REVPVYIGEDS [SYNM_Y460]")
0.402
>>> number("FLEKFYKFGSR [NNMT_Y25_YF]")
0.413
>>> number("VKPENDRRLDI [VHL_Y175_Y175D]")
0.43
>>> number("LFCVHYFHRTF [SRD5A2_Y91]")
1.04
>>> number("AHAGEHGAEAL [HBA1_Y25_Y25H]")
0.354

----------
# measured-on: EPHB2 (UniProt P29323)
# Sequence (P29323 whole entry, looked up): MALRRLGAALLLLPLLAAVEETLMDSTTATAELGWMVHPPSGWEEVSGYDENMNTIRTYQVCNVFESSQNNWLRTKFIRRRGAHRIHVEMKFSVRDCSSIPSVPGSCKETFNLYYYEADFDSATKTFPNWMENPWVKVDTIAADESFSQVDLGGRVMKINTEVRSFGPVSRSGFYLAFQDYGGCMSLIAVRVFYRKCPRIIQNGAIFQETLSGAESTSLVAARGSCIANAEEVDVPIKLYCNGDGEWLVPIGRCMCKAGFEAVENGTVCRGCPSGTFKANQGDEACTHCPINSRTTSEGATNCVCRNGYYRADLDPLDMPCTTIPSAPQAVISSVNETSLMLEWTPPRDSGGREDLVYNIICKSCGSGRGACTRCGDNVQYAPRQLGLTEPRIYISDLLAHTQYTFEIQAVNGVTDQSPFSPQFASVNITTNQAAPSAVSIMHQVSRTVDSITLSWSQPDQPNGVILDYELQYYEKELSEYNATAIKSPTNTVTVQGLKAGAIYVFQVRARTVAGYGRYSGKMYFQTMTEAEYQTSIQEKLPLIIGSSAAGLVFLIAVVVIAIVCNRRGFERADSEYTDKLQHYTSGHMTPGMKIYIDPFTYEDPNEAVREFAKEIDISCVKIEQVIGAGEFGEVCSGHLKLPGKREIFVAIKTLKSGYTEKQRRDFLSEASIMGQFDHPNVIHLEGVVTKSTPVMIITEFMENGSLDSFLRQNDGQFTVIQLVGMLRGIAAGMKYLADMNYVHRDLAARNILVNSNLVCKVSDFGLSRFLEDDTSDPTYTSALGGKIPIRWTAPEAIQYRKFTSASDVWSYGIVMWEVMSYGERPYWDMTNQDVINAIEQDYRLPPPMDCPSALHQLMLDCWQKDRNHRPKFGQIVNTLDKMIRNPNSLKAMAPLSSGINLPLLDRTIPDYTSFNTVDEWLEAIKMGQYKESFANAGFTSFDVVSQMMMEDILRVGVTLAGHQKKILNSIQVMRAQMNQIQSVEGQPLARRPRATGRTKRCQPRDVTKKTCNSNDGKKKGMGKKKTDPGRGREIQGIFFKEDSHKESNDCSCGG
# assay-overview: phosphorylation enrichment, bacterial display (enrichment ratio); higher = better substrate or ligand; peptides without Tyr show the background
Entries and their phosphorylation enrichment
observation-type: phosphorylation enrichment

>>> number("FEPDAYDDLDQ [ELP5_Y302_YF]")
0.684
>>> number("SKAFAYVHFDS [PABPC5_Y149_G146A_YF]")
0.483
>>> number("QDRTFYESVRT [SPEN_Y633_YF]")
0.579
>>> number("TESNNYIYTTL [FAM83B_Y637_K640T]")
1.15
>>> number("RNNTEYVRDIG [MUSK_Y577_I575T]")
0.41
>>> number("DKTGEYPVPLT [ACADM_Y73_I78T]")
0.438
>>> number("ILTFKYLQKPM [KIT_Y547_YF]")
0.759
>>> number("FFRKFCNKSED [RYR1_Y4864_Y4864C]")
0.381
>>> number("AGLVQYFMEHH [PTPN11_Y80_E76G_YF]")
0.592

----------
Quick list: SH2 binding enrichment per entry.
# measured-on: c-Src SH2
# assay-overview: SH2 binding enrichment of the phosphorylated peptide, bacterial display (enrichment ratio); higher = better substrate or ligand; peptides without Tyr show the background
observation-type: SH2 binding enrichment

>>> number("DHAGEYGAEAL [HBA1_Y25_A20D]")
0.506
>>> number("DRLASYLDKMR [KRT17_Y98_V102M]")
0.488
>>> number("GEEIKDMLWLS [OTC_Y55_Y55D]")
0.501
>>> number("LLAGLYRGQAL [FGFR4_Y390]")
0.508

----------
# measured-on: SHP2-C SH2
# assay-overview: SH2 binding enrichment of the phosphorylated peptide, bacterial display (enrichment ratio); higher = better substrate or ligand; peptides without Tyr show the background
Output met for SH2 binding enrichment not less than 0.7; output not met otherwise.

>>> label_value("GEVLVYVEDPA [FLNA_Y319]")
"not met"
>>> label_value("RSFSPYDFQPC [TNS1_Y796_YF]")
"not met"
>>> label_value("AEVDTYCRHNY [HLA-DRB1_Y107_A103E]")
"met"
>>> label_value("VRTGIYHGREP [PIK3CA_Y361_G364R]")
"met"

----------
# measured-on: c-Src SH2
# assay-overview: SH2 binding enrichment of the phosphorylated peptide, bacterial display (enrichment ratio); higher = better substrate or ligand; peptides without Tyr show the background
observation-type: SH2 binding enrichment

>>> number("GRLPEYNTPIA [CCDC151_Y542_R545P]")
0.841
>>> number("EATKGHLDDPT [G6PD_Y322_Y322H]")
0.598
>>> number("DAANNYARGHF [TUBA3E_Y103_S101N_YF]")
0.531
>>> number("EYFENYIEELK [PARP4_Y218]")
0.38
>>> number("HSSPVYVGRVV [TGM2_Y219_R214H]")
0.539
>>> number("CNSFRYGGGGG [NPPA_Y151]")
0.586
>>> number("LANNEYFFRVC")
0.634
>>> number("LSQQVYRVNLS [FAT4_Y480_F475L]")
0.422
>>> number("TESALYGCTVL [KIAA1804_Y724]")
0.552
>>> number("KFLENYFDLKK [MMP3_Y41_YF]")
0.604
>>> number("HFEFKYVINAI [MAOA_Y268_C266F_YF]")
0.561
>>> number("WAFNLYDINKY [KCNIP3_Y174_D179Y]")
0.706
>>> number("EVESPYEVRDF [GIGYF2_Y1168_H1171R_YF]")
0.45
>>> number("ACRSLYGGFVE [MVD_Y164]")
0.574
>>> number("RKNAKYLLKGE [CDH5_Y82]")
0.749
>>> number("VHSGTYQVTVR [MYBPC3_Y1043]")
0.567
>>> number("VKPENDRRLDI [VHL_Y175_Y175D]")
0.584
>>> number("PQGVGYPPQPQ [EP300_Y2219_Q2223P]")
0.666
>>> number("MDNQEYKDAYT [BRDT_Y331_K336T]")
0.574
>>> number("PVKAAYQKVVA [HBB_Y131_Q128K]")
0.615
>>> number("KRNSLYSFSDH [CCDC82_Y331_Q327R]")
0.548
